// provenance: the supplement of paper PMC8617591

Tested on: Mycobacterium tuberculosis Erdman (autoluminescent)
assayMethodText: total FIC50 (Loewe) at 50% inhibition, three-drug combination (log2); higher = more antagonistic
conditionsUsed: in vitro model: acidic pH 5.7; time point: terminal (~4-5 doublings, model-specific)
Decision: total FIC50 >= 0.4 yields TRUE, all other cases yield FALSE.

compound	group
CC[C@@H](CO)NCCN[C@@H](CC)CO [ethambutol] + COc1c(N2C[C@@H]3CCCN[C@@H]3C2)c(F)cc2c(=O)c(C(=O)O)cn(C3CC3)c12 [moxifloxacin] + CO[C@H]1/C=C/O[C@@]2(C)Oc3c(C)c(O)c4c(O)c(c(/C=N/N5CCN(C)CC5)c(O)c4c3C2=O)NC(=O)/C(C)=C\C=C\[C@H](C)[C@H](O)[C@@H](C)[C@@H](O)[C@@H](C)[C@H](OC(C)=O)[C@@H]1C [rifampicin]	TRUE
CC[C@@H](CO)NCCN[C@@H](CC)CO [ethambutol] + CC(=O)NC[C@H]1CN(c2ccc(N3CCOCC3)c(F)c2)C(=O)O1 [linezolid] + O=[N+]([O-])c1cn2c(n1)OC[C@@H](OCc1ccc(OC(F)(F)F)cc1)C2 [pretomanid]	TRUE
NNC(=O)c1ccncc1 [isoniazid] + CC(=O)NC[C@H]1CN(c2ccc(N3CCOCC3)c(F)c2)C(=O)O1 [linezolid] + O=[N+]([O-])c1cn2c(n1)OC[C@@H](OCc1ccc(OC(F)(F)F)cc1)C2 [pretomanid]	TRUE
CC(C)/N=c1\cc2n(-c3ccc(Cl)cc3)c3ccccc3nc-2cc1Nc1ccc(Cl)cc1 [clofazimine] + CC(=O)NC[C@H]1CN(c2ccc(N3CCOCC3)c(F)c2)C(=O)O1 [linezolid] + CO[C@H]1/C=C/O[C@@]2(C)Oc3c(C)c(O)c4c(O)c(c(/C=N/N5CCN(C)CC5)c(O)c4c3C2=O)NC(=O)/C(C)=C\C=C\[C@H](C)[C@H](O)[C@@H](C)[C@@H](O)[C@@H](C)[C@H](OC(C)=O)[C@@H]1C [rifampicin]	TRUE
COc1nc2ccc(Br)cc2cc1[C@@H](c1ccccc1)[C@@](O)(CCN(C)C)c1cccc2ccccc12 [bedaquiline] + CC[C@@H](CO)NCCN[C@@H](CC)CO [ethambutol] + NNC(=O)c1ccncc1 [isoniazid]	TRUE
COc1nc2ccc(Br)cc2cc1[C@@H](c1ccccc1)[C@@](O)(CCN(C)C)c1cccc2ccccc12 [bedaquiline] + NC(=O)c1cnccn1 [pyrazinamide] + CO[C@H]1/C=C/O[C@@]2(C)Oc3c(C)c(O)c4c(O)c(c(/C=N/N5CCN(C6CCCC6)CC5)c(O)c4c3C2=O)NC(=O)/C(C)=C\C=C\[C@H](C)[C@H](O)[C@@H](C)[C@@H](O)[C@@H](C)[C@H](OC(C)=O)[C@@H]1C [rifapentine]	FALSE
NNC(=O)c1ccncc1 [isoniazid] + CC(=O)NC[C@H]1CN(c2ccc(N3CCOCC3)c(F)c2)C(=O)O1 [linezolid] + COc1c(N2C[C@@H]3CCCN[C@@H]3C2)c(F)cc2c(=O)c(C(=O)O)cn(C3CC3)c12 [moxifloxacin]	TRUE
CC[C@@H](CO)NCCN[C@@H](CC)CO [ethambutol] + O=[N+]([O-])c1cn2c(n1)OC[C@@H](OCc1ccc(OC(F)(F)F)cc1)C2 [pretomanid] + CO[C@H]1/C=C/O[C@@]2(C)Oc3c(C)c(O)c4c(O)c(c(/C=N/N5CCN(C)CC5)c(O)c4c3C2=O)NC(=O)/C(C)=C\C=C\[C@H](C)[C@H](O)[C@@H](C)[C@@H](O)[C@@H](C)[C@H](OC(C)=O)[C@@H]1C [rifampicin]	FALSE
CC(C)/N=c1\cc2n(-c3ccc(Cl)cc3)c3ccccc3nc-2cc1Nc1ccc(Cl)cc1 [clofazimine] + NNC(=O)c1ccncc1 [isoniazid] + O=[N+]([O-])c1cn2c(n1)OC[C@@H](OCc1ccc(OC(F)(F)F)cc1)C2 [pretomanid]	FALSE
COc1nc2ccc(Br)cc2cc1[C@@H](c1ccccc1)[C@@](O)(CCN(C)C)c1cccc2ccccc12 [bedaquiline] + CC(=O)NC[C@H]1CN(c2ccc(N3CCOCC3)c(F)c2)C(=O)O1 [linezolid] + COc1c(N2C[C@@H]3CCCN[C@@H]3C2)c(F)cc2c(=O)c(C(=O)O)cn(C3CC3)c12 [moxifloxacin]	TRUE
CC(C)/N=c1\cc2n(-c3ccc(Cl)cc3)c3ccccc3nc-2cc1Nc1ccc(Cl)cc1 [clofazimine] + NNC(=O)c1ccncc1 [isoniazid] + COc1c(N2C[C@@H]3CCCN[C@@H]3C2)c(F)cc2c(=O)c(C(=O)O)cn(C3CC3)c12 [moxifloxacin]	TRUE
CC(C)/N=c1\cc2n(-c3ccc(Cl)cc3)c3ccccc3nc-2cc1Nc1ccc(Cl)cc1 [clofazimine] + CC[C@@H](CO)NCCN[C@@H](CC)CO [ethambutol] + CO[C@H]1/C=C/O[C@@]2(C)Oc3c(C)c(O)c4c(O)c(c(/C=N/N5CCN(C6CCCC6)CC5)c(O)c4c3C2=O)NC(=O)/C(C)=C\C=C\[C@H](C)[C@H](O)[C@@H](C)[C@@H](O)[C@@H](C)[C@H](OC(C)=O)[C@@H]1C [rifapentine]	FALSE
COc1nc2ccc(Br)cc2cc1[C@@H](c1ccccc1)[C@@](O)(CCN(C)C)c1cccc2ccccc12 [bedaquiline] + NNC(=O)c1ccncc1 [isoniazid] + CO[C@H]1/C=C/O[C@@]2(C)Oc3c(C)c(O)c4c(O)c(c(/C=N/N5CCN(C)CC5)c(O)c4c3C2=O)NC(=O)/C(C)=C\C=C\[C@H](C)[C@H](O)[C@@H](C)[C@@H](O)[C@@H](C)[C@H](OC(C)=O)[C@@H]1C [rifampicin]	TRUE

----------
// AUC25 lookup, one value per entry
System: Mycobacterium tuberculosis Erdman (autoluminescent)
assayMethodText: AUC25, normalised area under dose response up to IC25 (three-drug combination) (fraction (0-1)); higher = more potent at low dose
conditionsUsed: in vitro model: butyrate; time point: constant (~7 days, model-specific)

compound	AUC25
CC[C@@H](CO)NCCN[C@@H](CC)CO [ethambutol] + NC(=O)c1cnccn1 [pyrazinamide] + CO[C@H]1/C=C/O[C@@]2(C)Oc3c(C)c(O)c4c(O)c(c(/C=N/N5CCN(C6CCCC6)CC5)c(O)c4c3C2=O)NC(=O)/C(C)=C\C=C\[C@H](C)[C@H](O)[C@@H](C)[C@@H](O)[C@@H](C)[C@H](OC(C)=O)[C@@H]1C [rifapentine]	0.0808
COc1nc2ccc(Br)cc2cc1[C@@H](c1ccccc1)[C@@](O)(CCN(C)C)c1cccc2ccccc12 [bedaquiline] + NNC(=O)c1ccncc1 [isoniazid] + CO[C@H]1/C=C/O[C@@]2(C)Oc3c(C)c(O)c4c(O)c(c(/C=N/N5CCN(C6CCCC6)CC5)c(O)c4c3C2=O)NC(=O)/C(C)=C\C=C\[C@H](C)[C@H](O)[C@@H](C)[C@@H](O)[C@@H](C)[C@H](OC(C)=O)[C@@H]1C [rifapentine]	0.0748
COc1nc2ccc(Br)cc2cc1[C@@H](c1ccccc1)[C@@](O)(CCN(C)C)c1cccc2ccccc12 [bedaquiline] + CC(=O)NC[C@H]1CN(c2ccc(N3CCOCC3)c(F)c2)C(=O)O1 [linezolid] + O=[N+]([O-])c1cn2c(n1)OC[C@@H](OCc1ccc(OC(F)(F)F)cc1)C2 [pretomanid]	0.105

----------
Test system: Mycobacterium tuberculosis Erdman (autoluminescent)
assayMethodText: AUC25, normalised area under dose response up to IC25 (three-drug combination) (fraction (0-1)); higher = more potent at low dose
conditionsUsed: in vitro model: dormancy (butyrate + nitrate, low O2); time point: constant (~7 days, model-specific)
// AUC25 lookup, one value per entry
propertyName: AUC25

compound	reported
CC(C)/N=c1\cc2n(-c3ccc(Cl)cc3)c3ccccc3nc-2cc1Nc1ccc(Cl)cc1 [clofazimine] + NNC(=O)c1ccncc1 [isoniazid] + NC(=O)c1cnccn1 [pyrazinamide]	0.0828
CC(C)/N=c1\cc2n(-c3ccc(Cl)cc3)c3ccccc3nc-2cc1Nc1ccc(Cl)cc1 [clofazimine] + NNC(=O)c1ccncc1 [isoniazid] + O=[N+]([O-])c1cn2c(n1)OC[C@@H](OCc1ccc(OC(F)(F)F)cc1)C2 [pretomanid]	0.0958
COc1nc2ccc(Br)cc2cc1[C@@H](c1ccccc1)[C@@](O)(CCN(C)C)c1cccc2ccccc12 [bedaquiline] + CC(=O)NC[C@H]1CN(c2ccc(N3CCOCC3)c(F)c2)C(=O)O1 [linezolid] + CO[C@H]1/C=C/O[C@@]2(C)Oc3c(C)c(O)c4c(O)c(c(/C=N/N5CCN(C)CC5)c(O)c4c3C2=O)NC(=O)/C(C)=C\C=C\[C@H](C)[C@H](O)[C@@H](C)[C@@H](O)[C@@H](C)[C@H](OC(C)=O)[C@@H]1C [rifampicin]	0.0823
COc1nc2ccc(Br)cc2cc1[C@@H](c1ccccc1)[C@@](O)(CCN(C)C)c1cccc2ccccc12 [bedaquiline] + O=[N+]([O-])c1cn2c(n1)OC[C@@H](OCc1ccc(OC(F)(F)F)cc1)C2 [pretomanid] + NC(=O)c1cnccn1 [pyrazinamide]	0.043
CC(C)/N=c1\cc2n(-c3ccc(Cl)cc3)c3ccccc3nc-2cc1Nc1ccc(Cl)cc1 [clofazimine] + O=[N+]([O-])c1cn2c(n1)OC[C@@H](OCc1ccc(OC(F)(F)F)cc1)C2 [pretomanid] + CO[C@H]1/C=C/O[C@@]2(C)Oc3c(C)c(O)c4c(O)c(c(/C=N/N5CCN(C6CCCC6)CC5)c(O)c4c3C2=O)NC(=O)/C(C)=C\C=C\[C@H](C)[C@H](O)[C@@H](C)[C@@H](O)[C@@H](C)[C@H](OC(C)=O)[C@@H]1C [rifapentine]	0.0611
COc1nc2ccc(Br)cc2cc1[C@@H](c1ccccc1)[C@@](O)(CCN(C)C)c1cccc2ccccc12 [bedaquiline] + CC(C)/N=c1\cc2n(-c3ccc(Cl)cc3)c3ccccc3nc-2cc1Nc1ccc(Cl)cc1 [clofazimine] + NNC(=O)c1ccncc1 [isoniazid]	0.0746
COc1nc2ccc(Br)cc2cc1[C@@H](c1ccccc1)[C@@](O)(CCN(C)C)c1cccc2ccccc12 [bedaquiline] + COc1c(N2C[C@@H]3CCCN[C@@H]3C2)c(F)cc2c(=O)c(C(=O)O)cn(C3CC3)c12 [moxifloxacin] + CO[C@H]1/C=C/O[C@@]2(C)Oc3c(C)c(O)c4c(O)c(c(/C=N/N5CCN(C)CC5)c(O)c4c3C2=O)NC(=O)/C(C)=C\C=C\[C@H](C)[C@H](O)[C@@H](C)[C@@H](O)[C@@H](C)[C@H](OC(C)=O)[C@@H]1C [rifampicin]	0.0876
CC[C@@H](CO)NCCN[C@@H](CC)CO [ethambutol] + NC(=O)c1cnccn1 [pyrazinamide] + CO[C@H]1/C=C/O[C@@]2(C)Oc3c(C)c(O)c4c(O)c(c(/C=N/N5CCN(C6CCCC6)CC5)c(O)c4c3C2=O)NC(=O)/C(C)=C\C=C\[C@H](C)[C@H](O)[C@@H](C)[C@@H](O)[C@@H](C)[C@H](OC(C)=O)[C@@H]1C [rifapentine]	0.0922
CC(C)/N=c1\cc2n(-c3ccc(Cl)cc3)c3ccccc3nc-2cc1Nc1ccc(Cl)cc1 [clofazimine] + CC(=O)NC[C@H]1CN(c2ccc(N3CCOCC3)c(F)c2)C(=O)O1 [linezolid] + NC(=O)c1cnccn1 [pyrazinamide]	0.104
CC[C@@H](CO)NCCN[C@@H](CC)CO [ethambutol] + COc1c(N2C[C@@H]3CCCN[C@@H]3C2)c(F)cc2c(=O)c(C(=O)O)cn(C3CC3)c12 [moxifloxacin] + CO[C@H]1/C=C/O[C@@]2(C)Oc3c(C)c(O)c4c(O)c(c(/C=N/N5CCN(C)CC5)c(O)c4c3C2=O)NC(=O)/C(C)=C\C=C\[C@H](C)[C@H](O)[C@@H](C)[C@@H](O)[C@@H](C)[C@H](OC(C)=O)[C@@H]1C [rifampicin]	0.0959
CC(=O)NC[C@H]1CN(c2ccc(N3CCOCC3)c(F)c2)C(=O)O1 [linezolid] + COc1c(N2C[C@@H]3CCCN[C@@H]3C2)c(F)cc2c(=O)c(C(=O)O)cn(C3CC3)c12 [moxifloxacin] + CO[C@H]1/C=C/O[C@@]2(C)Oc3c(C)c(O)c4c(O)c(c(/C=N/N5CCN(C6CCCC6)CC5)c(O)c4c3C2=O)NC(=O)/C(C)=C\C=C\[C@H](C)[C@H](O)[C@@H](C)[C@@H](O)[C@@H](C)[C@H](OC(C)=O)[C@@H]1C [rifapentine]	0.0602
CC[C@@H](CO)NCCN[C@@H](CC)CO [ethambutol] + NNC(=O)c1ccncc1 [isoniazid] + CC(=O)NC[C@H]1CN(c2ccc(N3CCOCC3)c(F)c2)C(=O)O1 [linezolid]	0.117
